- Tested on: IFNγ
- EXPERIMENT: Cytokine assay: IFNγ release from PHA-L stimulated human PBMCs
- Type: cell-based
- EXPERIMENTAL_CONTEXT: Homo sapiens, PBMC
READOUT_LABEL: pIC50
Expect pIC50 as a plain number equal to -log10 of the molar concentration.

The examples below pair each entry with its known result.
> print(dat)
                                   compound  measured
1  CCCOc1c(OC)ccc(-c2cncc(C3COB(O)C3)n2)c1F (single isomer, unassigned; enantiomer 1) [Example 216]      8.71
2  CCOc1cc(-c2cc([C@@H]3COB(O)C3)cnc2C)ccc1OC (single isomer, unassigned) [Example 19]      8.77

The record that follows has no pIC50 shown yet.
The compound CCOc1cc(-c2cncc(C3COB(O)C3)c2C)c(F)cc1OC (single isomer, unassigned) [Example 142] showed pIC50 equal to 8.69

====

Items are presented alongside their recorded pIC50.
- Tested on: IFNγ
- EXPERIMENT: Cytokine assay: IFNγ release from PHA-L stimulated human PBMCs
- Format: cell-based
- EXPERIMENTAL_CONTEXT: Homo sapiens, PBMC
- Description: Cytokine inhibitory activity is determined by measuring the effect of test agent on the release of the cytokines IL-4, IL-13 and IFNγ from human peripheral blood mononuclear cells (PBMCs) stimulated with the T-cell mitogen phytohemagglutinin-L (PHA-L). […]
pIC50 is a log-scale quantity: -log10 of the concentration expressed in molar.

Recorded result, CCCOc1cc(-c2cccc(C3COB(O)C3)n2)ccc1OC (stereo not shown) [Example 127] , pIC50: 8.55

Lab note: CCOc1cc(-c2cncc(C3COB(O)C3)c2)ccc1SC (stereo not shown) gave pIC50 of 8.30

Value of measured pIC50 for the entry CCOc1cc(-c2cc([C@H]3COB(O)C3)cnc2C)ccc1OC (single isomer, unassigned) : 6.99

// pIC50 lookup, compound = CCCOc1cc(-c2cncc(C3COB(O)C3)c2)ccc1OCC (single isomer, unassigned) [Example 105] , result: 8.26

====

- Tested on: IFNγ
- EXPERIMENT: Cytokine assay: IFNγ release from PHA-L stimulated human PBMCs
- Type: cell-based
- EXPERIMENTAL_CONTEXT: Homo sapiens, PBMC
Form field: pIC50 (one value per entry).
Field pIC50 (float): negative decimal logarithm of the concentration in molar.

> print(dat)
                                   compound  measured
1  COc1ccc(-c2cccc(C3COB(O)C3)n2)c(F)c1OC (centres unmarked)      8.08
2  CCOc1cc(-c2cccc(C3COB(O)C3)c2)ccc1SC (centres unmarked)      7.56
3  CCOc1c(OC)ccc(-c2cncc(C3COB(O)C3)c2)c1F (centres unmarked) [Example 73]      8.78
4  CCOc1cc(-c2cccc(C3COB(O)C3)n2)ccc1OC (centres unmarked)      8.53
5  CCCOc1cc(-c2cc(C3COB(O)C3)cnn2)ccc1OC (centres unmarked) [Example 137]      8.60

The reported value for COc1ccc(-c2cccc(C3COB(O)C3)c2)cc1OCC1CC1 (centres unmarked) in terms of pIC50 is 8.49

Input COc1ccc(-c2cncc(C3COB(O)C3)c2)c(F)c1OC (centres unmarked) . Output pIC50: 8.38
